target: HIV-1 integrase (Human immunodeficiency virus type 1 group M subtype B (isolate HXB2) (HIV-1)); experiment: biochemical; format: biochemical
endpoint-label: IC50

Reported IC50 ( "Cn1cnc(-c2nnc(Cc3ccc(F)cc3)o2)c(O)/c1=N\O" ) = 58.7 µM

The molecule "Cn1nc(-c2nnc(Cc3ccc(F)cc3)o2)/c(=N\O)c2ncccc21" showed IC50 equal to 23.9 µM

Input "Cn1nc(C(=O)NCc2ccc(F)cc2)/c(=N\O)c2ncccc21" . Output IC50: 14 µM
